# Test system: biotinyl-Trp-oxazolone
# ASSAY_SUMMARY: self-aminoacylation, catalytic enhancement (BWO) (fold over background); higher = more active; k-Seq, kA / k0A0; sequences stand for … in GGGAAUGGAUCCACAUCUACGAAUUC…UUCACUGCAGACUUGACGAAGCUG
Variants at the floor of the assay were thinned out.
QUANTITY_KIND: self-aminoacylation
One number for each entry.

Some sequences with known self-aminoacylation results, for comparison:
{"RESIDUE_SEQUENCE": "AUUCACUUAGGUCAUCGAGUG [Fam2.2 aminoacylation ribozyme variant]", "self-aminoacylation": 1.99}
{"RESIDUE_SEQUENCE": "AUUCCCCUGGUCAUCGAGUGC [Fam2.1 aminoacylation ribozyme variant]", "self-aminoacylation": 2.07}
{"RESIDUE_SEQUENCE": "AUCCACCUAGGUCUUCGGGUG [Fam2.2 aminoacylation ribozyme variant]", "self-aminoacylation": 6.45}

I have 5 sequences here; please give me self-aminoacylation for each one.
1. AAGUUUGCUCAUAGUCGUAAG [Fam3.1 aminoacylation ribozyme variant]
2. CUACUUCAAAAAAUCGGUCUG [Fam1A.1 aminoacylation ribozyme variant]
3. AUUCACCGAUGUCAUCGGGUG [Fam2.2 aminoacylation ribozyme variant]
4. CCACAUUUCAAGGAAUCGGUC [Fam1B.1 aminoacylation ribozyme variant]
5. CCGCUCUUCAAGCAAUCGGUC [Fam1B.1 aminoacylation ribozyme variant]

## Result
1: 3.67; 2: 7.37; 3: 7.35; 4: 1.28; 5: 26.3

## Task Tell us which self-aminoacylation value is on record for AUAGACCUAGGUCAUCGGGUG [Fam2.2 aminoacylation ribozyme variant]
## Result 4.2

* * *

# Test system: biotinyl-Met-oxazolone
# ASSAY_SUMMARY: self-aminoacylation, catalytic enhancement (BMO) (fold over background); higher = more active; k-Seq, kA / k0A0; sequences stand for … in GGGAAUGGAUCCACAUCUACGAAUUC…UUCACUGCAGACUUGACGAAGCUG
Fewer inactive variants are shown than the library holds.
QUANTITY_KIND: self-aminoacylation
Give bare numbers.

Some sequences with known self-aminoacylation results, for comparison:
{"RESIDUE_SEQUENCE": "AUUCACCUAAGUCAUCGGGUA [Fam2.2 aminoacylation ribozyme variant]", "self-aminoacylation": 2.44}
{"RESIDUE_SEQUENCE": "AUUACCCAGGUCAUCGAGUUA [Fam2.1 aminoacylation ribozyme variant]", "self-aminoacylation": 0.882}
{"RESIDUE_SEQUENCE": "AAUCACCUAGGUGAUCGGGUG [Fam2.2 aminoacylation ribozyme variant]", "self-aminoacylation": 5.43}

I have 6 sequences here; please give me self-aminoacylation for each one.
1. AUUACCUUGGUCAUCGAGAGA [Fam2.1 aminoacylation ribozyme variant]
2. CCACACUUCUAGCAAUCGAUC [Fam1B.1 aminoacylation ribozyme variant]
3. CUACUUCAUACAAUCGGGCUG [Fam1A.1 aminoacylation ribozyme variant]
4. AAGUUUGCUAAUUGUUGCAAG [Fam3.1 aminoacylation ribozyme variant]
5. CCACACUUCUGGCAAUCGGUC [Fam1B.1 aminoacylation ribozyme variant]
6. AUCACCCUGGUCAACGAGUGA [Fam2.1 aminoacylation ribozyme variant]

## Result
[0.957, 0.447, 0.744, 0.901, 1.26, 9.31]

I have 4 sequences here; please give me self-aminoacylation for each one.
1. AUUCAACUACGUCAUCGGGUG [Fam2.2 aminoacylation ribozyme variant]
2. CCAAACUUGAAGCAAUCGGUC [Fam1B.1 aminoacylation ribozyme variant]
3. AUUCACCUAGGUCAUUGGGAG [Fam2.2 aminoacylation ribozyme variant]
4. AUACACCCAGGUCAUCGGGUG [Fam2.2 aminoacylation ribozyme variant]

## Result
1. 4.57
2. 0.87
3. 1.05
4. 5.29

I have 6 sequences here; please give me self-aminoacylation for each one.
1. AUAUACCUAGGUCAUCGGGUG [Fam2.2 aminoacylation ribozyme variant]
2. CUACACUUCAAGCAAUCGGUU [Fam1B.1 aminoacylation ribozyme variant]
3. AGUACCCUGGUCACCGAGUGA [Fam2.1 aminoacylation ribozyme variant]
4. AAGUUUGCUAAUAAUCGCAAC [Fam3.1 aminoacylation ribozyme variant]
5. AAGUCUGCUAAAAGUCGCAAG [Fam3.1 aminoacylation ribozyme variant]
6. AUUCACCCACGUCAUCGGGUG [Fam2.2 aminoacylation ribozyme variant]

## Result
1: 3.97; 2: 1.47; 3: 8.83; 4: 1.06; 5: 1.92; 6: 3.91
